# assay_method_text: NCI Yeast Anticancer Drug Screen. Data for the cln2 rad14 strain (AID 165);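 further: 0% = growth equal to vehicle treated cultures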
# applied_conditions: S. cerevisiae cln2 rad14 strain, at 50.0 µM
Compounds without any hit were thinned out: in the full panel of roughly 79,000, 15% have a hit. The source made the active and inactive calls. No stated cut-off is given here; in the data, active means growth inhibition above about 70%; inactive means the rest.
Choose one outcome from this list and give only that: active, inactive

Illustrative cases are given below, each with its answer.
cpd_smiles | group
CCCCCCCCCCCCCCCCCC(=O)OCCOCCO | inactive
N#C/C=C/C=C/C#N | active

# outcome recorded in this test, key = C=Cc1nc(N)nc(-c2ccc(C)cc2)n1 inactive

# outcome recorded in this test, key = c1ccc(CN2CCC3(CC2)SSC2(CCN(Cc4ccccc4)CC2)SS3)cc1 inactive

# outcome recorded in this test, key = CCN(CC)CCNc1ccc2nnn3c4ccccc4c(=O)c1c23 inactive

# outcome recorded in this test, key = CCC(CC)=NNc1ccc([N+](=O)[O-])cc1 active

---

# assay_method_text: NCI Yeast Anticancer Drug Screen. Data for the mlh1 rad18 strain (AID 175)
# applied_conditions: S. cerevisiae mlh1 rad18 strain growth inhibition; at 50.0 µM (retest, dose inferred, filed as 5.0)
Compounds without any hit were thinned out: in the full panel of roughly 79,000, 15% have a hit. Active and inactive are the calls of the source. No stated cut-off is given here; in the data, active means growth inhibition above about 70%; inactive means the rest.
Choose one outcome from this list and give only that: YES = active, NO = inactive

Illustrative cases are given below, each with its answer.
compound | group
Cc1c[n+](CC(=O)c2ccc(I)cc2)c(C)s1 | NO
CCCCN(CCCC)CC(O)c1cccc2c(Cl)cccc12 (configuration not stated) | YES
O=C1CCC(Cc2ccc(I)cc2)C(=O)N1 (configuration not stated) | NO
c1cc[c]([Sn]([O]c2cccc3cccnc23)([c]2ccccc2)[c]2ccccc2)cc1 | NO
C=C1C(O)C2(O)OCC34C(CC5C(C)=CC(=O)C(O)C5(C)C23)OC(=O)C(OC(=O)C/C=C/CCCCCCCC)C14 (configuration not stated) | YES

# outcome recorded in this test, key = O=C1C=C(c2ccccc2)O/C1=C/C(=O)c1ccc(Cl)cc1 NO

# outcome recorded in this test, key = Cn1cnc2[nH]c(Cl)nc(=S)c21 NO

---

# assay_method_text: NCI Yeast Anticancer Drug Screen. Data for the mlh1 rad18 strain (AID 175)
# applied_conditions: S. cerevisiae mlh1 rad18 strain growth inhibition; at 5.0 µM (retest, dose inferred, filed as 0.5); active compounds read high
The panel holds about 79,000 compounds, 15% with a hit somewhere; the sample as a whole holds those more often.
quantity_kind: growth inhibition (%)
Give just the number in %; leave the unit off.

compound | assay_value
Nc1cc(F)c2c(c1F)C(=O)c1cc(F)ccc1-2 | 5

Let us move to another entry and its growth inhibition.
Name the recorded growth inhibition for CC1CC(N)=NC1C(=O)NCCC#N (stereo not given) . 30

---

# assay_method_text: NCI Yeast Anticancer Drug Screen. Data for the mec2-1 strain (AID 157)
# applied_conditions: S. cerevisiae mec2-1 strain, at 50.0 µM, active compounds read high
# Description: Growth inhibition of yeast strains with defined genetic alterations is measured as a screen for potential anti-cancer activity. Selected strains with alterations in DNA damage repair or cell cycle control were exposed to compounds and growth inhibition was measured relative to vehicle treated controls. The strain used in this assay is mec2-1
Compounds without any hit were thinned out: in the full panel of roughly 79,000, 15% have a hit.
Quick reference for growth inhibition among some compounds
Give just the number in %; leave the unit off.

compound | measure_unit | growth inhibition
O=C(Sc1c(-c2ccccc2)c(=O)n(-c2ccccc2)c(=S)n1-c1ccccc1)c1cccs1 | % | 73.1
CN(C)C(=S)/N=c1\ss/c(=N\S(=O)(=O)c2ccccc2)n1-c1ccccc1 | % | 51.9
CCCCCCCCCCCCCCOS(=O)(=O)O | % | 99.7
CC(C)C1=CC2=CCC3C(C)(C(=O)O)CCCC3(C)C2CC1 (centres undefined) (tested in a mixture with another compound) | % | 75.7
OC(/C=C/c1ccccc1)(c1ccccc1)c1nc2ccccc2s1 (centres undefined) | % | 1.95

Name the recorded growth inhibition for FC(F)(F)c1cc(NC(=S)SC2CCCCC2)ccc1Cl . 79.2

Name the recorded growth inhibition for CN(C(=O)C(Cl)Cl)c1ccc(-c2csc(-c3ccccc3)n2)cc1 . 33.9

Name the recorded growth inhibition for CN(C)CCN(C)N=Nc1c(-c2cccs2)n[nH]c1C(F)(F)F . 99.7

Name the recorded growth inhibition for CC(=O)OCCC1=CCC2CC1C2(C)C (centres undefined) . 7.2
